- assayDetails: Pharmacokinetics experiment of mice in vivo, single intravenous injection
- Design: species or system male CD-1 mice
- studyConditions: male, CD-1, plasma; Mouse PK, IV 1 mg/kg
recordedMetric: clearance

[[record]]
chemicalstructure = "CC(=O)NCCSc1nonc1/C(=N/O)Nc1ccc(F)c(Br)c1"
result = "64.2 mL/min/kg"


Quick check: clearance of `NC(=O)NCCSc1nonc1/C(=N/O)Nc1ccc(F)c(Br)c1` ?
55.1 mL/min/kg

---

Give measured AUC(0-inf) for each item. Keep answers brief.
- assayDetails: Pharmacokinetics experiment of mice in vivo, single intravenous injection
- Parameters: species or system male CD-1 mice
- studyConditions: male, CD-1, plasma; Mouse PK, IV 1 mg/kg
Answers are plain numbers, in µM·h.

[[record]]
compound = "CC(=O)NCCSc1nonc1/C(=N/O)Nc1ccc(F)c(Br)c1 [Compound 0227]"
recordedmetric = "AUC(0-inf)"
numericresult = 0.628


Field: next compound
Quick check: AUC(0-inf) of NC(=O)NCCSc1nonc1/C(=N/O)Nc1ccc(F)c(Br)c1 [Compound 0231] ?
0.881
